Each recorded value in this set is attributed to the supplement of paper PMC8612539.

system: Mannheimia haemolytica; assay: minimum inhibitory concentration (MIC); conditions: isolate (source animal id): 133
Entries and their minimum inhibitory concentration values follow.

Example entries and their recorded answers appear below.
INSERT INTO measurements (smiles_string, value_kind, test_value) VALUES
  ('CC1(C)S[C@@H]2[C@H](NC(=O)[C@H](N)c3ccccc3)C(=O)N2[C@H]1C(=O)O', 'minimum inhibitory concentration', '≤ 0.25 mg/L'),
  ('CC[C@H]1OC(=O)C[C@@H](O)[C@H](C)[C@@H](O[C@@H]2O[C@H](C)[C@@H](O)[C@H](N(C)C)[C@H]2O)[C@@H](CCN2CCCCC2)C[C@@H](C)C(=O)/C=C/C(C)=C/[C@@H]1CN1CCCCC1', 'minimum inhibitory concentration', '> 16 mg/L');

Continue with the next molecule.
Q: Requested read-out: minimum inhibitory concentration. Entry: CCC[C@@H]1C[C@@H](C(=O)N[C@@H]([C@H]2O[C@H](SC)[C@H](O)[C@@H](O)[C@H]2O)[C@H](C)Cl)N(C)C1
Ans: > 16 mg/L
